tested on: rat 3-D primary aggregating brain cell cultures; test: Gene expression (mRNA of nestin, NF-200, S100β, MBP) by quantitative real-time PCR in aggregating brain cell cultures exposed to potential DNT chemicals; assay type: cell-based; details: neural precursor marker; exposure DIV 7-14 or 7-21; real-time PCR
Outcome measure: The lowest concentration inducing changes in mRNA levels of nestin (µM)
# unit: µM | format: bare number

See these solved cases before continuing.
>  <Compound>
CNC(=O)Oc1cccc2ccccc12

>  <Experimental value>
0.1

$$$$
>  <Compound>
S=C([S-])NCCNC(=S)[S-].[Mn+2]

>  <Experimental value>
1

$$$$
>  <Compound>
Cl[C@H]1[C@H](Cl)[C@@H](Cl)[C@@H](Cl)[C@H](Cl)[C@H]1Cl

>  <Experimental value>
0.1

$$$$
>  <Compound>
CCOP(=S)(OCC)Oc1nc(Cl)c(Cl)cc1Cl

>  <Experimental value>
0.1

$$$$
>  <Compound>
[Cl][Pb][Cl] [Lead Chloride]

>  <Experimental value>
10

$$$$

// next entry
Data request: Report The lowest concentration inducing changes in mRNA levels of nestin for [Cl][Cd][Cl] [Cadmium Chloride] tested on rat 3-D primary aggregating brain cell cultures.
Data returned: 1

Source listed as patent US20130005588A1.
